target: TRPV1 (Homo sapiens, UniProt Q8NER1); assay: Ion channel panel (IonWorks Barracuda): TRPV1
Sequence (Q8NER1 whole entry): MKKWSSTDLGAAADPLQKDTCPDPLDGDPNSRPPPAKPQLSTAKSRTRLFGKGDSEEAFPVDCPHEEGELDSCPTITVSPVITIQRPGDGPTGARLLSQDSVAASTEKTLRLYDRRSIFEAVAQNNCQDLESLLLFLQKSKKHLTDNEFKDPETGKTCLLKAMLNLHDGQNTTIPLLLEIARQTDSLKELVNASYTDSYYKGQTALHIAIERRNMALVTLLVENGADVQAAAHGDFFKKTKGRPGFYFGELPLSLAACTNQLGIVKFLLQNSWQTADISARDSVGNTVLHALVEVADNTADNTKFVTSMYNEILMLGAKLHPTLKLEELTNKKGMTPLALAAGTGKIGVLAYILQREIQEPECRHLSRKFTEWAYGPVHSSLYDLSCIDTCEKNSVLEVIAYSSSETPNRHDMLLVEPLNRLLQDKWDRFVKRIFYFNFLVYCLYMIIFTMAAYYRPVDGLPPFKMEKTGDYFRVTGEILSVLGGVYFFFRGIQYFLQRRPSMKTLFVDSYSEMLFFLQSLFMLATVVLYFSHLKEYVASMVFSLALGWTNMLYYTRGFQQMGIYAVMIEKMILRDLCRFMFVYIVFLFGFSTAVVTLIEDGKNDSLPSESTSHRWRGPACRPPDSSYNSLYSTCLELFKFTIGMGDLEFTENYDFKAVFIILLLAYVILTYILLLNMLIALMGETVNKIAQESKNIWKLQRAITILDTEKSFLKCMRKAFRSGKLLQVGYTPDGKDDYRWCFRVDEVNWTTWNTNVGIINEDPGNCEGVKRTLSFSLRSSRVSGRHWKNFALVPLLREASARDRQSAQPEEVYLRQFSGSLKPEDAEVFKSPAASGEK
pIC50: −log10 of the molar value.

# compound, pIC50
data = [
    ("Oc1cc2c(cc1O)CN(C(=S)NCCc1ccc(Cl)cc1)CCC2 [Capsazepine, reference compound]", 7.05),
]

---

target: Kv1.2 (Homo sapiens); construct: host or cells: HEK293 or CHO; assay: cell-based; format: cell-based; conditions: peptide at 0.2 μM; 100% = no change, <100% = inhibition
Sequence (P16389 whole entry): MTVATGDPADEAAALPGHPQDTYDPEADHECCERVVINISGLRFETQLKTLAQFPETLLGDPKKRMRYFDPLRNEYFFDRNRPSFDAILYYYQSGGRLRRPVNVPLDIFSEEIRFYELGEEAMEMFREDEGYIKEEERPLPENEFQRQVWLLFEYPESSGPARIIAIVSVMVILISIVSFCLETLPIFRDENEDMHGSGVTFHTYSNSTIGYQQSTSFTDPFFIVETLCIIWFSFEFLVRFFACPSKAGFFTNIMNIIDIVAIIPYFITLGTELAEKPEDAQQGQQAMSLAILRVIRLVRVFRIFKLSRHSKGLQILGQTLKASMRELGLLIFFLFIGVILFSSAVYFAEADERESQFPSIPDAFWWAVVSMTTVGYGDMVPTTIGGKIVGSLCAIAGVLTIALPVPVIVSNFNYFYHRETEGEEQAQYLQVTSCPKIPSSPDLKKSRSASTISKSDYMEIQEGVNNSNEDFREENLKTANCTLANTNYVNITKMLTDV
reported property: Activity of Kv1.2 with peptide, expressed as a percentage of the reference compound (%)

# substance, target entity, quantity unit, numeric result
rows = [
    ("9 (GSGCFGYKCDYYKGCCSGYVCSPTWKWCVRPGPGR) [compound 9]", "Kv1.2 (Homo sapiens)", "%", 120),
    ("24 (GSSCAKPGEMCMRIKCCDGQCGCNRGTGRCFCK) [compound 24]", "Kv1.2 (Homo sapiens)", "%", 74),
    ("3 (GSSEKDCIKHLQRCRENKDCCSKKCSRRGTNPEKRCR) [compound 3]", "Kv1.2 (Homo sapiens)", "%", 88),
    ("34 (GGYSRCQLQGFNCVVRSYGLPTIPCCRGLTCRSYFPGSTYGRCQRY) [compound 34]", "Kv1.2 (Homo sapiens)", "%", 96),
    ("2 (GSEVIRCSGSKQCYGPCKQQTGCTNSKCMNKVCKCYGCG) [compound 2]", "Kv1.2 (Homo sapiens)", "%", 34),
    ("26 (GSVVIGQRCYRSPDCYSACKKLVGKATGKCTNGRCDC) [compound 26]", "Kv1.2 (Homo sapiens)", "%", 79),
    ("6 (GSVRIPVSCKHSGQCLKPCKDAGMRFGKCMNGKCDCTPK) [compound 6]", "Kv1.2 (Homo sapiens)", "%", 81),
    ("5 (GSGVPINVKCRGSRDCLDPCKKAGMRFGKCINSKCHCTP) [compound 5]", "Kv1.2 (Homo sapiens)", "%", 89),
    ("18 (GSNCAGYMRECKEKLCCSGYVCSSRWKWCVLPAPWRR) [compound 18]", "Kv1.2 (Homo sapiens)", "%", 67),
]
